target: human Y4 receptor (human, UniProt P50391 1-375); experiment: 125I-PP displacement
Sequence (P50391 whole entry): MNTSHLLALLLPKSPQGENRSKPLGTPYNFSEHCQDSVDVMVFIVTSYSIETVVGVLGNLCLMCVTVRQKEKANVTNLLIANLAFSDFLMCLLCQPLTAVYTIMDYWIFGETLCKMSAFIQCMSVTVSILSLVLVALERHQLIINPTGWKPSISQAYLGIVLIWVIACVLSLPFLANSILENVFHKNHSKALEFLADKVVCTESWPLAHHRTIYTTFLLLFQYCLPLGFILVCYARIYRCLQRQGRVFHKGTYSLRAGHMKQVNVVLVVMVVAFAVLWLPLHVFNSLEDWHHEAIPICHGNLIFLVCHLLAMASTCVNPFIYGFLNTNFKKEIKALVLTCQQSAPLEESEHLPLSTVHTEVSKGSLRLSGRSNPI
pIC50: −log10 of the molar value.
value type: pIC50

binder="APLEPVYPGDNATPEEIVKYFIELRRYINMLTRPRY [7124]" value_type=pIC50 numeric_value=9.51
binder="APLEPVYPGDDATPQQMAHYYSELRRYINMLTRPRY [7136]" value_type=pIC50 numeric_value=9.83
binder="DAPLEPVYPGDNATPEQMAQYAADLRRYINKLTRPRY [7219]" value_type=pIC50 numeric_value=9.66
